Overview of reported ELISA A405 across a group of binders:
- EXPERIMENTAL_SYSTEM: T1, SARS-CoV-2 Spike receptor binding domain (RBD, amino acids 330-532) (SARS-CoV-2, UniProt P0DTC2 330-532)
- T1 construct: range 330-532
- MEASUREMENT_DESCRIPTION: phage ELISA on biotinylated RBD captured on neutravidin, anti-M13-HRP

Documented ELISA A405 of NbRBD_A7 (VHH) VHH: QVQLVESGGGLVQPGGSLRLSCAASGFTFDDYAMSWVRQAPGKGLEWVSAISWNGGGTYYAESMKGRFTISRDNAKNTLYLQMNSLKSEDTAVYYCAKDFHRYGSSTLEYDYWGQGTQVTVSS : > 1.5

Consider the additional binder presented here.
Documented ELISA A405 of NbRBD_F5 (VHH) VHH: QVQLVESGGGLVQAGGSLRLSCAASGTIFRINAMAWYRQAPGKQRELVAIISNGDSGDSTNYADSVKGRFTISRDSAKNTVYLQMNSLKPEDTAVYYCNVEASWPHKYWGQGTQVTVSS : > 1.5
